Measured values drawn from patent US7868135B2 for this set.

test system: Staphylococcus aureus SAU0065 (MRSA); experiment: Broad spectrum MIC, Table 17/18 column H; type: cell-based; details: condition H of Table 17, in µg/mL
Below, each entry is listed with its recorded MIC, media condition H.

compound: CCCCCCCCCCCCNC(=O)NC(CC(=O)O)C(=O)NC1C(=O)N2CCCCC2C(=O)NC(C(C)C(=O)O)C(=O)NC(CC(=O)O)C(=O)NCC(=O)NC(CC(=O)O)C(=O)NCC(=O)NC(C(C)NC(=O)CNC)C(=O)NC(C(C)C)C(=O)N2CCCC2C(=O)NC1C (stereo not shown)
tgt: Staphylococcus aureus SAU0065 (MRSA)
MIC, media condition H: 1

[ask] Query: MIC, media condition H; subject: CCCCCCCCCCCCCCC(=O)NC(CC(=O)O)C(=O)NC1C(=O)N2CCCCC2C(=O)NC(C(C)C(=O)O)C(=O)NC(CC(=O)O)C(=O)NCC(=O)NC(CC(=O)O)C(=O)NCC(=O)NC(C(C)NC(=O)[C@@H]2CCCN2)C(=O)NC(C(C)C)C(=O)N2CCCC2C(=O)NC1C (stereo partly shown)
[reply] 4

[ask] Next entry: CCCCCCCCCCCCCCCCC(=O)NC(CC(=O)O)C(=O)NC1C(=O)N2CCCCC2C(=O)NC(C(C)C(=O)O)C(=O)NC(CC(=O)O)C(=O)NCC(=O)NC(CC(=O)O)C(=O)NCC(=O)NC(C(C)N)C(=O)NC(C(C)C)C(=O)N2CCCC2C(=O)NC1C (stereo not shown)
[reply] 1-2

[ask] Next entry: CCCCCCCCCCCCOc1ccc(C(=O)NC(CC(=O)O)C(=O)NC2C(=O)N3CCCCC3C(=O)NC(C(C)C(=O)O)C(=O)NC(CC(=O)O)C(=O)NCC(=O)NC(CC(=O)O)C(=O)NCC(=O)NC(C(C)N)C(=O)NC(C(C)C)C(=O)N3CCCC3C(=O)NC2C)cc1 (stereo not shown)
[reply] 2-8

###

Below, each entry is listed with its recorded MIC, media condition H.
tested on: Staphylococcus aureus SAU0065 (MRSA); test: Broad spectrum MIC, Table 17/18 column H; assay type: cell-based; conditions: condition H of Table 17, in µg/mL

// solved cases for MIC, media condition H follow
compound: CCCCCCCCCCCCCCNC(=O)NC(CC(=O)O)C(=O)NC1C(=O)N2CCCCC2C(=O)NC(C(C)C(=O)O)C(=O)NC(CC(=O)O)C(=O)NCC(=O)NC(CC(=O)O)C(=O)NCC(=O)NC(C(C)N)C(=O)NC(C(C)C)C(=O)N2CCCC2C(=O)NC1C (stereo not shown) [Compound 253, CH3—(CH2)13—NH—C(═O)-Amphomycin]
recordedEndpoint: MIC, media condition H
result: 1-2
//
compound: CCCCCCCCCCCCCCCCC(=O)NC(CC(=O)O)C(=O)NC1C(=O)N2CCCCC2C(=O)NC(C(C)C(=O)O)C(=O)NC(CC(=O)O)C(=O)NCC(=O)NC(CC(=O)O)C(=O)NCC(=O)NC(C(C)NC(=O)CCN)C(=O)NC(C(C)C)C(=O)N2CCCC2C(=O)NC1C (stereo not drawn) [Compound 80, C17-Amphomycin-9-(β-Ala)]
recordedEndpoint: MIC, media condition H
result: 2
//
compound: CCCCCCCCCCCCCCC(=O)NC(CC(=O)O)C(=O)NC1C(=O)N2CCCCC2C(=O)NC(C(C)C(=O)O)C(=O)NC(CC(=O)O)C(=O)NCC(=O)NC(CC(=O)O)C(=O)NCC(=O)NC(C(C)NC(=O)[C@H]2CCCN2)C(=O)NC(C(C)C)C(=O)N2CCCC2C(=O)NC1C (stereo partly drawn) [Compound 67, C15-Amphomycin-9-(D-Pro)]
recordedEndpoint: MIC, media condition H
result: 2
//
compound: CCCCCCCCCCCCCCC(=O)NC(CC(=O)O)C(=O)NC1C(=O)N2CCCCC2C(=O)NC(C(C)C(=O)O)C(=O)NC(CC(=O)O)C(=O)NCC(=O)NC(CC(=O)O)C(=O)NCC(=O)NC(C(C)NC(=O)CCN)C(=O)NC(C(C)C)C(=O)N2CCCC2C(=O)NC1C (stereo not drawn) [Compound 147, C15-Amphomycin-9-(β-Ala)]
recordedEndpoint: MIC, media condition H
result: 1
//
compound: CCCCCCCCCCCCOc1ccc(C(=O)NC(CC(=O)O)C(=O)NC2C(=O)N3CCCCC3C(=O)NC(C(C)C(=O)O)C(=O)NC(CC(=O)O)C(=O)NCC(=O)NC(CC(=O)O)C(=O)NCC(=O)NC(C(C)NC(=O)CN)C(=O)NC(C(C)C)C(=O)N3CCCC3C(=O)NC2C)cc1 (stereo not shown) [Compound 88]
recordedEndpoint: MIC, media condition H
result: 0.5-1

[ask] Query: MIC, media condition H; subject: CCCCCCCCCCCCCCC(=O)NC(CC(=O)O)C(=O)NC1C(=O)N2CCCCC2C(=O)NC(C(C)C(=O)O)C(=O)NC(CC(=O)O)C(=O)NCC(=O)NC(CC(=O)O)C(=O)NCC(=O)NC(C(C)NC(=O)CNC(=O)[C@@H](C)N)C(=O)NC(C(C)C)C(=O)N2CCCC2C(=O)NC1C (stereo partly drawn) [Compound 69, C15-Amphomycin-9-Gly-(D-Ala)]
[reply] 2

[ask] Next entry: CCCCCCCCCCCCNC(=O)NC(CC(=O)O)C(=O)NC1C(=O)N2CCCCC2C(=O)NC(C(C)C(=O)O)C(=O)NC(CC(=O)O)C(=O)NCC(=O)NC(CC(=O)O)C(=O)NCC(=O)NC(C(C)NC(=O)CN)C(=O)NC(C(C)C)C(=O)N2CCCC2C(=O)NC1C (stereo not shown) [Compound 92, CH3—(CH2)11—NH—C(═O)-Amphomycin-9-Gly]
[reply] 1-2

###

Below, each entry is listed with its recorded MIC.
test system: Staphylococcus aureus (MSSA); details: 24 h
Starred links: 1 amine or outer side, 2 acyl side, 3 side chain; linkers in the order of their positions; H or OH if unused. Positions of bridges follow the written chain, without caps; N, C: chain ends. Non-standard residues stand in square brackets, D forms with d. Residues, ends and D or L forms follow the SMILES beside them. ξ: configuration not given here. *: point of attachment. X3 = CC(NC(=O)[C@H](N)CN)C(N[*:1])C(=O)[*:2]; ξAbu(βξ-NH2) = CC(N[*:3])C(N[*:1])C(=O)[*:2]; Pentadecanoyl = CCCCCCCCCCCCCCC(=O)*; ξAsp(βξ-Me) = CC(C(=O)O)C(N)C(=O)O; Tridecanoyl = CCCCCCCCCCCCC(=O)*; X1 = O=C(Cc1ccc(N[*:1])cc1)[*:2]; ξAbu(3ξ-NH2) = CC(N)C(N)C(=O)O; Pip = O=C(O)[CH]1CCCCN1; ξD = NC(CC(=O)O)C(=O)O; ξPip = O=C(O)C1CCCCN1; ξV = CC(C)C(N)C(=O)O; ξP = O=C(O)C1CCCN1
Enter your answer as a number in µg/mL; do not include the unit.

compound: CCCCCCCCCCCCCCC(=O)NC(CC(=O)O)C(=O)NC1C(=O)N2CCCCC2C(=O)NC(C(C)C(=O)O)C(=O)NC(CC(=O)O)C(=O)NCC(=O)NC(CC(=O)O)C(=O)NCC(=O)NC(C(C)NC(=O)[C@H](N)CN)C(=O)NC(C(C)C)C(=O)N2CCCC2C(=O)NC1C (stereo partly drawn) [Compound 328, C15-Amphomycin-9-(D-Dap)] (Pentadecanoyl-[ξD][ξAbu(βξ-NH2)][ξPip][ξAsp(βξ-Me)][ξD]G[ξD]G[X3][ξV][ξP]; lactam 2-C)
unitAbbreviation: µg/mL
MIC: 2

[ask] Query: MIC; subject: CCCCCCCCCCCCC(=O)Nc1ccc(CC(=O)NC(CC(=O)O)C(=O)NC2C(=O)N3CCCCC3C(=O)NC(C(C)C(=O)O)C(=O)NC(CC(=O)O)C(=O)NCC(=O)NC(CC(=O)O)C(=O)NCC(=O)NC(C(C)N)C(=O)NC(C(C)C)C(=O)N3CCCC3C(=O)NC2C)cc1 (stereo not drawn) [Compound 300, C13-(p-Apa)-Amphomycin] (Tridecanoyl-[X1]D[ξAbu(βξ-NH2)][Pip][ξAsp(βξ-Me)]DGDG[ξAbu(3ξ-NH2)]VP; lactam 3-C; configuration not given here)
[reply] 0.225

###

assay: Acute toxicity, maximum tolerated dose (MTD); conditions: Swiss CD1, mouse, in vivo, iv
recordedEndpoint: MTD at 7 days

[ask] Query: MTD at 7 days; subject: CCCCCCCCCCCCCCC(=O)NC(CC(=O)O)C(=O)NC1C(=O)N2CCCCC2C(=O)NC(C(C)C(=O)O)C(=O)NC(CC(=O)O)C(=O)NCC(=O)NC(CC(=O)O)C(=O)NCC(=O)NC(C(C)NC(=O)CN)C(=O)NC(C(C)C)C(=O)N2CCCC2C(=O)NC1C (stereo not shown)
[reply] 50 to 200 mg/kg

###

test system: Staphylococcus aureus (MSSA); settings: 24 h
Starred links: 1 amine or outer side, 2 acyl side, 3 side chain; linkers in the order of their positions; H or OH if unused. Positions of bridges follow the written chain, without caps; N, C: chain ends. Non-standard residues stand in square brackets, D forms with d. Residues, ends and D or L forms follow the SMILES beside them. ξ: configuration not given here. *: point of attachment. X18 = CC(NC(=O)/C=C/c1ccco1)C(N[*:1])C(=O)[*:2]; ξAbu(βξ-NH2) = CC(N[*:3])C(N[*:1])C(=O)[*:2]; X21 = CC(=O)SCC(=O)NC(C)C(N[*:1])C(=O)[*:2]; Pentadecanoyl = CCCCCCCCCCCCCCC(=O)*; ξAsp(βξ-Me) = CC(C(=O)O)C(N)C(=O)O; X2 = O=C(CCc1ccc(N[*:1])cc1)[*:2]; ξAbu(3ξ-NH2) = CC(N)C(N)C(=O)O; Lauroyl = CCCCCCCCCCCC(=O)*; Pip = O=C(O)[CH]1CCCCN1
recordedEndpoint: MIC (µg/mL)
Enter your answer as a number in µg/mL; do not include the unit.

molecule: CCCCCCCCCCCCCCC(=O)NC(CC(=O)O)C(=O)NC1C(=O)N2CCCCC2C(=O)NC(C(C)C(=O)O)C(=O)NC(CC(=O)O)C(=O)NCC(=O)NC(CC(=O)O)C(=O)NCC(=O)NC(C(C)NC(=O)CSC(C)=O)C(=O)NC(C(C)C)C(=O)N2CCCC2C(=O)NC1C (stereo not drawn) [Compound 235, C15-Amphomycin-9-(S-Acetylthioglycolyl)] (Pentadecanoyl-D[ξAbu(βξ-NH2)][Pip][ξAsp(βξ-Me)]DGDG[X21]VP; lactam 2-C; configuration not given here)
MIC, µg/mL: 2

molecule: CCCCCCCCCCCCCCC(=O)NC(CC(=O)O)C(=O)NC1C(=O)N2CCCCC2C(=O)NC(C(C)C(=O)O)C(=O)NC(CC(=O)O)C(=O)NCC(=O)NC(CC(=O)O)C(=O)NCC(=O)NC(C(C)NC(=O)/C=C/c2ccco2)C(=O)NC(C(C)C)C(=O)N2CCCC2C(=O)NC1C (stereo not drawn) [Compound 349, C15-Amphomycin-9-(3-Furan-2-yl-Acryloyl)] (Pentadecanoyl-D[ξAbu(βξ-NH2)][Pip][ξAsp(βξ-Me)]DGDG[X18]VP; lactam 2-C; configuration not given here)
MIC, µg/mL: 64

Here's the next entry for you.
[ask] Query: MIC; subject: CCCCCCCCCCCC(=O)Nc1ccc(CCC(=O)NC(CC(=O)O)C(=O)NC2C(=O)N3CCCCC3C(=O)NC(C(C)C(=O)O)C(=O)NC(CC(=O)O)C(=O)NCC(=O)NC(CC(=O)O)C(=O)NCC(=O)NC(C(C)N)C(=O)NC(C(C)C)C(=O)N3CCCC3C(=O)NC2C)cc1 (stereo not drawn) [Compound 108, C12-(p-Aminophenylpropanoyl)-Amphomycin] (Lauroyl-[X2]D[ξAbu(βξ-NH2)][Pip][ξAsp(βξ-Me)]DGDG[ξAbu(3ξ-NH2)]VP; lactam 3-C; configuration not given here)
[reply] 0.5
